Just for reference, the supplement of paper PMC11208160 is where these values come from.

Assay: recombinant UMI read abundance after kanamycin selection (control-corrected) (log10(CPM+1)); higher = more efficient recombination; extreme values may be limits of the assay; sequences stand for … in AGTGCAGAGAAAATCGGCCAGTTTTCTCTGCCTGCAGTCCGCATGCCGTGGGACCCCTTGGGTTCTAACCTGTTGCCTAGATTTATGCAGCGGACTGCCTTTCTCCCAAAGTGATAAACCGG…AGGTTGGTTTCACT; site = the 11-nt donor
MEASURED_PROPERTY: recombinant UMI read abundance (log10)
Please respond with just the number, no unit label.

INSERT INTO assay_data (seq_text, meas_value) VALUES
  ('TTAGCAGCATGGACCGGTTTTCCCGGTAATCCGTATTTGTG (site TTAGCAGCTCA)', 0.707);

Memo: CTCGAATCATGGACCGGTTTTCCCGGTAATCCGTATTTGAC (site CTCGAATCTGT) , reported recombinant UMI read abundance (log10): 1.76

# sequence GGTCCTACATGGACCGGTTTTCCCGGTAATCCGTATTTGTA (site GGTCCGACTTA) ; its recombinant UMI read abundance (log10) = 0.0128

Notebook: CGTGGTTCATGGACCGGTTTTCCCGGTAATCCGTATTTGCG (site CGTGGTTCTCG) , recombinant UMI read abundance (log10) read as 2.1

recombinant UMI read abundance (log10) reported for this sequence TATAGTCCATGGACCGGTTTTCCCGGTAATCCGTATTTGTA (site TACAGTCCTTA) : 0.121

* * *

Assay: recombinant UMI read abundance after kanamycin selection (control-corrected) (log10(CPM+1)); higher = more efficient recombination; extreme values may be limits of the assay; sequences stand for … in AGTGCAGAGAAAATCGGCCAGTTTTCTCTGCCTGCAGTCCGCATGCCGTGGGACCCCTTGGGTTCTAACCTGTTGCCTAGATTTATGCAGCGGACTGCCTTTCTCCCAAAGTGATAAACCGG…AGGTTGGTTTCACT; site = the 11-nt donor
Below, each entry is listed alongside its reported recombinant UMI read abundance (log10).
Enter a number only.

INSERT INTO results (seq_text, measured_property, meas_value) VALUES
  ('CACGTCACATGGACCGGTTTTCCCGGTAATCCGTATTTGGG (site CAGGTCACTCC)', 'recombinant UMI read abundance (log10)', 0.00985);

For this sequence ( GCTTGCCCATGGACCGGTTTTCCCGGTAATCCGTATTTGTT (site GCTTGCCCTAA) ), measured recombinant UMI read abundance (log10) is 0.0266

sequence TTGGCGGCATGGACCGGTTTTCCCGGTAATCCGTATTTGCT (site TTTGCGGCTAG) , recombinant UMI read abundance (log10) observed: 0.00953

The reported recombinant UMI read abundance (log10) of the sequence TGGCATACATGGACCGGTTTTCCCGGTAATCCGTATTTGTA (site TGGCATACTTA) was 0.751

recombinant UMI read abundance (log10) recorded for this sequence, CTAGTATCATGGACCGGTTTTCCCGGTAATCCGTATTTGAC (site CTAGAATCTCT) , is 0

Please fill in: recombinant UMI read abundance (log10) reported for ACTCCAGCATGGACCGGTTTTCCCGGTAATCCGTATTTGTG (site ACTCCAGCTCA) = 0.753

Given item CAAGTATCATGGACCGGTTTTCCCGGTAATCCGTATTTGAC (site CCAGTATCTGT) , the value recorded as its recombinant UMI read abundance (log10) is 0.955

Memo: CTGGTATCATGGACCGGTTTTCCCGGTAATCCGTATTTGCC (site CTGGTATCTGG) , reported recombinant UMI read abundance (log10): 0

Documented recombinant UMI read abundance (log10) of CTAGAATCATGGACCGGTTTTCCCGGTAATCCGTATTTGTC (site CTAGTATCTGT) : 0.307

* * *

Assay: recombinant UMI read abundance after kanamycin selection (control-corrected) (log10(CPM+1)); higher = more efficient recombination; extreme values may be limits of the assay; sequences stand for … in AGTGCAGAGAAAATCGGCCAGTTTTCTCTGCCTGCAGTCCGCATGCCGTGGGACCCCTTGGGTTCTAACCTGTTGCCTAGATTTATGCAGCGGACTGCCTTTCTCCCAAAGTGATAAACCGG…AGGTTGGTTTCACT; site = the 11-nt donor
MEASURED_PROPERTY: recombinant UMI read abundance (log10)
Lab note: jot down the number only; don't add units.

Worked cases, recombinant UMI read abundance (log10) given:
INSERT INTO results (seq_text, measured_property, meas_value) VALUES
  ('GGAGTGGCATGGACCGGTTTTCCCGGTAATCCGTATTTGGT (site TGAGTGGCTAC)', 'recombinant UMI read abundance (log10)', 0.32),
  ('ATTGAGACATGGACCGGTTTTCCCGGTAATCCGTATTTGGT (site ATCGAGACTAC)', 'recombinant UMI read abundance (log10)', 0.854),
  ('ATCCAAGCATGGACCGGTTTTCCCGGTAATCCGTATTTGAT (site ATCCAAGCTCT)', 'recombinant UMI read abundance (log10)', 0.233);

Per the record, CTTGAAACATGGACCGGTTTTCCCGGTAATCCGTATTTGCA (site CTGGAAACTTG) has recombinant UMI read abundance (log10) of 0.538

// CTCTTCTCATGGACCGGTTTTCCCGGTAATCCGTATTTGGG (site CCCTTCTCTCC) : recombinant UMI read abundance (log10) value = 0.0128

* * *

Entries annotated with measured recombinant UMI read abundance (log10)
Test: recombinant UMI read abundance after kanamycin selection (control-corrected) (log10(CPM+1)); higher = more efficient recombination; extreme values may be limits of the assay; sequences stand for … in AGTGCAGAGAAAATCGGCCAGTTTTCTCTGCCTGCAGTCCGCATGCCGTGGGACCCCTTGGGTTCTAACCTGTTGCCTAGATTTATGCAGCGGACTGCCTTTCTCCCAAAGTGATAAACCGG…AGGTTGGTTTCACT; site = the 11-nt donor
Lab note: write the figure by itself, no unit.

INSERT INTO assay_data (seq_text, meas_value) VALUES
  ('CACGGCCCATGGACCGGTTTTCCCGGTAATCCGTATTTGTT (site CGCGGCCCTAA)', 0.0132),
  ('GCCACGACATGGACCGGTTTTCCCGGTAATCCGTATTTGTA (site GCCACGACTTA)', 2.11),
  ('TCCAATTCATGGACCGGTTTTCCCGGTAATCCGTATTTGCT (site TCCAATTCTTG)', 0),
  ('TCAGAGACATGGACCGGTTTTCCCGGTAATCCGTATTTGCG (site CCAGAGACTCG)', 1.66),
  ('TACCTACCATGGACCGGTTTTCCCGGTAATCCGTATTTGAG (site TACCTACCTCT)', 0.0115),
  ('CAATACCCATGGACCGGTTTTCCCGGTAATCCGTATTTGCT (site CAATTCCCTAG)', 0);

recombinant UMI read abundance (log10) for GCACTTCCATGGACCGGTTTTCCCGGTAATCCGTATTTGTT (site GCACTTCCTAA) is 0.561

Reported recombinant UMI read abundance (log10) of AACGATGCATGGACCGGTTTTCCCGGTAATCCGTATTTGAC (site AACGATGCTGT) : 2.22

recombinant UMI read abundance (log10) reported for this sequence TCGCTAGCATGGACCGGTTTTCCCGGTAATCCGTATTTGGC (site TCGCTAGCTGC) : 0

* * *

Test: recombinant barcode read abundance after kanamycin selection (control-corrected) (log10(CPM+1)); higher = more efficient recombination; sequences stand for … in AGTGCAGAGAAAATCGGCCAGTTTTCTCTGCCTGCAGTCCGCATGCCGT…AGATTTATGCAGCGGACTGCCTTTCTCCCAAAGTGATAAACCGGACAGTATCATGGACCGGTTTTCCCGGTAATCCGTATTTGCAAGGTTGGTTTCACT; site = the 11-nt target
MEASURED_PROPERTY: recombinant barcode read abundance (log10)
The answer should be a number; do not append a unit.

Worked examples follow.
INSERT INTO results (seq_text, meas_value) VALUES
  ('CTGAGGACTTGGGTTCTAACCTGTTGCCT (site GTGAGGACTAG)', 0.0454),
  ('GGTTCTTCTTGGGTTCTAACCTGTTGCCT (site GCTTCTTCTAG)', 0.0288),
  ('GGACCTCCTTGGGTTCTAACCTGTTGCGT (site GGACCTCCTAT)', 1.71);

Note to self: recombinant barcode read abundance (log10) recorded for GGTATGTCTTGGGTTCTAACCTGTTGCCT (site TGTATGTCTAG) was 0.106

For reference, reported recombinant barcode read abundance (log10) for CTCACGCCTTGGGTTCTAACCTGTTGCTT (site CTCACGCCTAA) stands at 0.237

Kindly note the recorded recombinant barcode read abundance (log10) for AGATTGCCTTGGGTTCTAACCTGTTGCCT (site AGATTGCCTAG) , which is 0.489

Looking up CTAGACTCTTGGGTTCTAACCTGTTGCTC (site CTAGACTCTAA) , I found its recombinant barcode read abundance (log10) recorded as 0.0434

For record ATCTCAACTTGGGTTCTAACCTGTTGCCT (site ATCTCAACTAG) the listed recombinant barcode read abundance (log10) is 0.118

The sequence identified as CGAGATTCTTGGGTTCTAACCTGTTGCCT (site CCAGATTCTAG) registered its recombinant barcode read abundance (log10) at 0.271

Summary for this sequence, TAGTTACCTTGGGTTCTAACCTGTTGCCG (site TAGTTACCTCG) : recombinant barcode read abundance (log10) is 0.612
